Target: K^b molecules (MHC class I H-2K^b) purified from EL-4 cells (mouse (endogenous in EL-4))
Test: radioligand binding
Where no end group is shown, it is not given here. The star is where a group is joined. αGalNAc = CC(=O)N[C@@H]1[C@@H](O)[C@@H](O)[C@@H](CO)O[C@@H]1*
REPORTED PROPERTY: IC50 (nM)

Recorded IC50 for "GGGGFGGL" , please?
53000

Recorded IC50 for "AIIAAFAAL" , please?
10

Recorded IC50 for AIIASFAAL (βGal-[1→3]-α-GalNAc-O-serine (TF antigen) at position 5) [AIIA(βGal-[1→3]-α-GalNAc-O-ser)FAAL] , please?
4

Recorded IC50 for AIIAS(αGalNAc)FAAL [AIIA(GalNac-O-ser)FAAL] , please?
4

Recorded IC50 for "AAAAFAAL" , please?
75

(1) SSSSFSSL
(2) AIIASFAAL
Given the two records 1 and 2 , choose the one whose IC50 value is lower. Answer format: the label of the selected item.
2
